- Test system: K-562 leukemia
- MEASUREMENT PROTOCOL: NCI tumour cell line growth inhibition, 48 h
PROPERTY NAME: TGI

Some solved entries appear below for comparison.
COc1ccccc1Nc1nc(-c2cc3cccc(C(F)(F)F)c3oc2=O)cs1 : > 100 µM
COc1ccc2c(CNCCCCO)cc3cc4c(cc3c2c1)OCO4 : 20.3 µM

Query TGI for `Cc1cccc(Nc2cn(CCOc3ccccc3)c(=O)[nH]c2=O)c1`
> 100 µM

Provide only the value of recorded TGI for `Cn1c2ccccc2c2c3c(c4c5ccccc5n(CCCCCC#N)c4c21)C(=O)N(O)C3=O`
> 100 µM

Kindly indicate its recorded TGI. Item: `O=C(OCCOCCOC(=O)c1c[nH]cc1-c1ccccc1)c1c[nH]cc1-c1ccccc1`
> 100 µM

From: PubChem BioAssay (NCI)
